B1: H2-Kb / Ed10 (parent complex)
chain 1: GEQVEQRPPHLSVREGDSAFIICTYTDSATAYFYWYKQEPGAGLQLLMSVFSNVDRKEEQGLTVLLNKKDKRLSLNLTAAHPGDSAVYFCAVRGTGYQNFYFGKGTSLTVIP
chain 2: AQTIHQWPVAEIKAVGSPLSLGCTIKGKSSPNLYWYWQATGGTLQQLFYSITVGQVESVVQLNLSASRPKDDQFILSTEKLLLSHSGFYLCAWSPGYEQYFGPGTRLTVL
chain 3: not shown
chain 4: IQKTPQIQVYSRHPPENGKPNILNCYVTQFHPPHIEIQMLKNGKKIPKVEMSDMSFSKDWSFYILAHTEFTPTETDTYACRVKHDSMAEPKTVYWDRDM
chain 5: SIINFEKL

Variants of: B1
Assay: % of reporter cells activated (NFAT-GFP), raw; also: test concentration or dose not given here
Please assign F whenever ratio to parent is at or above 0.7, and T whenever it is below.

{"columns": ["change", "classification"],
 "data": [
  ["chain 5 L8D", "F"],
  ["chain 5 K7E", "T"],
  ["chain 5 I2H", "F"],
  ["chain 5 F5A", "F"],
  ["chain 5 I2A", "F"],
  ["chain 5 K7H", "T"],
  ["chain 5 L8C", "F"],
  ["chain 5 I2T", "F"],
  ["chain 5 E6P", "T"],
  ["chain 5 I3S", "F"],
  ["chain 5 L8S", "F"],
  ["chain 5 N4H", "F"],
  ["chain 5 I3L", "F"],
  ["chain 5 N4P", "T"],
  ["chain 5 S1T", "F"],
  ["chain 5 E6T", "T"],
  ["chain 5 N4M", "T"],
  ["chain 5 S1L", "F"],
  ["chain 5 E6L", "T"],
  ["chain 5 F5M", "F"],
  ["chain 5 E6R", "T"],
  ["chain 5 I2S", "F"],
  ["chain 5 E6M", "T"],
  ["chain 5 S1A", "F"],
  ["chain 5 F5D", "F"],
  ["chain 5 I2C", "F"],
  ["chain 5 N4I", "T"],
  ["chain 5 I3T", "F"],
  ["chain 5 K7C", "T"],
  ["chain 5 K7I", "T"],
  ["chain 5 N4V", "T"],
  ["chain 5 F5I", "F"],
  ["chain 5 F5W", "T"],
  ["chain 5 I3Q", "F"],
  ["chain 5 I2E", "F"],
  ["chain 5 L8R", "F"],
  ["chain 5 I2Q", "F"],
  ["chain 5 I2Y", "F"],
  ["chain 5 L8T", "F"],
  ["chain 5 S1M", "F"],
  ["chain 5 S1I", "F"],
  ["chain 5 N4Q", "T"],
  ["chain 5 L8Q", "F"],
  ["chain 5 K7F", "T"],
  ["chain 5 S1N", "T"],
  ["chain 5 N4K", "T"],
  ["chain 5 N4R", "T"],
  ["chain 5 S1G", "F"],
  ["chain 5 I3M", "F"],
  ["chain 5 K7S", "F"],
  ["chain 5 E6Y", "T"],
  ["chain 5 E6C", "T"],
  ["chain 5 I2L", "F"],
  ["chain 5 N4S", "T"],
  ["chain 5 S1Y", "F"],
  ["chain 5 E6F", "T"],
  ["chain 5 K7D", "T"],
  ["chain 5 F5Q", "F"],
  ["chain 5 E6Q", "T"],
  ["chain 5 K7Q", "T"],
  ["chain 5 F5C", "F"],
  ["chain 5 K7G", "F"],
  ["chain 5 E6I", "T"],
  ["chain 5 K7A", "T"],
  ["chain 5 K7N", "F"],
  ["chain 5 S1D", "F"],
  ["chain 5 S1K", "F"],
  ["chain 5 K7T", "T"],
  ["chain 5 K7W", "T"],
  ["chain 5 I3A", "F"],
  ["chain 5 E6W", "T"],
  ["chain 5 L8K", "F"],
  ["chain 5 F5S", "F"],
  ["chain 5 N4E", "T"],
  ["chain 5 L8G", "F"],
  ["chain 5 I3Y", "T"],
  ["chain 5 L8A", "F"],
  ["chain 5 S1C", "F"],
  ["chain 5 I2D", "F"],
  ["chain 5 N4C", "T"],
  ["chain 5 I3P", "F"],
  ["chain 5 F5P", "T"],
  ["chain 5 L8E", "F"],
  ["chain 5 I3K", "F"],
  ["chain 5 I3H", "F"],
  ["chain 5 E6D", "T"]
]}
